- Test system: UACC-62 melanoma
- assay notes: NCI tumour cell line growth inhibition, 48 h
Readings of log10 TGI for the listed compounds
outcome measure: log10 TGI (log10 of the value in µM)

{"compound": "O=C(/C=C\\c1ccc(O)c(O)c1)c1ccccc1O", "outcome measure": "log10 TGI", "reported value": 1.42}
{"compound": "O=S(=O)(NCCCNc1cc(-c2cn(-c3ccccc3)nc2-c2cccc(O)c2)ccn1)c1ccc(C(F)(F)F)cc1", "outcome measure": "log10 TGI", "reported value": 0.50}
{"compound": "COc1ccc(/C=C/C(=O)c2cc(OC)cc(OC)c2)cc1", "outcome measure": "log10 TGI", "reported value": 1.23}
{"compound": "CC(=O)CCC#Cc1ccccc1C(=O)C(C)=[N+]=[N-]", "outcome measure": "log10 TGI", "reported value": 1.59}
{"compound": "CC(C)(C)[Si](C)(C)OCC1OC(n2cnc3c(N)ncnc32)C2OC(=S)OC12 (stereo not given)", "outcome measure": "log10 TGI", "reported value": 1.89}
